Experiment: Lipophilicity, log D of the compound at pH 7.4
Type: physicochemical
Conditions: buffer
reported.metric: logD

Solved entries:
>>> print(df.to_string())
                            compound_smiles  result_value
0  Cc1ccc2c(c1)nc(CCc1ncc3cccnn13)n2-c1ccccc1           4.5
1  Cc1ccc2c(c1)nc(CCc1nc(C)c3cccnn13)n2-c1ccccc1             5
2  COc1ccc2c(c1)nc(CCn1c(=O)n(C)c3cccnc31)n2-c1ccccc1           3.6

1: COc1ccnc2c1nc(CCn1c(=O)n(C)c3nccnc31)n2-c1ccccc1
2: Cc1ccc2c(c1)nc(CCn1nc(C)c3cccnc31)n2-c1ccccc1
Query block: Compare logD: is it lower for 1 or for 2 ? Answer by stating the label of the chosen item.
Result block: 1
(1: 1.3, 2: 4.9)
